Origin of measurements: patent US20080269298A1

tested on: colon (HCT116) tumor cell line; assay: Methylene Blue Growth Inhibition Assay, HCT116; assay type: cell-based; conditions: Homo sapiens, HCT-116, 72 h; Cell Line HCT116, 3 days; read-out: MeB IC50
pIC50: −log10 of the molar value.
Reported property: pIC50

A selection of reference data follows.
- Compound: "O=C(O)c1sc(-n2cnc3cc(Cl)c(Cl)cc32)cc1OCc1ccsc1 [Example 79]"
  pIC50: "< 5.00"
- Compound: "NC(=O)c1sc(-n2c(N)nc3ccccc32)cc1OCc1ccccc1C(F)(F)F [Example 148]"
  pIC50: "5.00 to 6.00"

Now consider a different compound.
Any idea what its pIC50 is? The compound is COc1cc2c(cc1OCCCN1CCCC1=O)ncn2-c1cc(OCc2ccccc2C(F)(F)F)c(C(N)=O)s1 [Example 134]
5.00 to 6.00

----------
Listed next: entries and their corresponding pIC50.
test system: colon (HCT116) tumor cell line; experiment: Methylene Blue Growth Inhibition Assay, HCT116; format: cell-based; settings: Homo sapiens, HCT-116, 72 h; Cell Line HCT116, 3 days; read-out: MeB IC50
pIC50: −log10 of the molar value.

- Compound: "CS(=O)(=O)Nc1ccc2ncn(-c3cc(OCc4ccccc4C(F)(F)F)c(C(N)=O)s3)c2c1"
  Reported property: "pIC50"
  Obs value: "5.00 to 6.00"
- Compound: "NC(=O)c1sc(-n2cnc3ccc(OCCN4CCCC4)cc32)cc1OCc1ccccc1C(F)(F)F"
  Reported property: "pIC50"
  Obs value: "5.00 to 6.00"
- Compound: "COc1cc2ncn(-c3cc(OCc4ccccc4S(C)(=O)=O)c(C(N)=O)s3)c2cc1OC"
  Reported property: "pIC50"
  Obs value: "5.00 to 6.00"
- Compound: "COc1ccc2ncn(-c3cc(OCc4ccccc4C(F)(F)F)c(C(N)=O)s3)c2c1"
  Reported property: "pIC50"
  Obs value: "5.00 to 6.00"
- Compound: "COc1cc2ncn(-c3cc(OCc4ccccc4C(F)(F)F)c(C(N)=O)s3)c2cc1OCCCN(C)C"
  Reported property: "pIC50"
  Obs value: "> 6.00"

Form field: pIC50 recorded for Cc1ccccc1COc1cc(-n2cnc3ccc(Cl)cc32)sc1C(=O)O with colon (HCT116) tumor cell line (enter value)
< 5.00

Form field: pIC50 recorded for COc1cc2ncn(-c3cc(OCc4c(Cl)cccc4Cl)c(C(N)=O)s3)c2cc1OC with colon (HCT116) tumor cell line (enter value)
5.00 to 6.00

Form field: pIC50 recorded for CC(=O)c1sc(-n2cnc3ccc(Cl)cc32)cc1OCc1ccccc1C with colon (HCT116) tumor cell line (enter value)
< 5.00

Form field: pIC50 recorded for O=C(O)c1sc(-n2cnc3ccc(Cl)cc32)cc1OCc1ccc(F)cc1Cl with colon (HCT116) tumor cell line (enter value)
< 5.00

Form field: pIC50 recorded for CS(=O)(=O)N1CCC(COc2cc(-n3cnc4cc5c(cc43)OCCO5)sc2C(N)=O)CC1 with colon (HCT116) tumor cell line (enter value)
< 5.00

Form field: pIC50 recorded for O=C(O)c1sc(-n2cnc3ccc(Cl)cc32)cc1OCc1cccnc1 with colon (HCT116) tumor cell line (enter value)
< 5.00

Form field: pIC50 recorded for COc1cc2ncn(-c3cc(OCc4cc5c(cc4Cl)OCO5)c(C(N)=O)s3)c2cc1OC with colon (HCT116) tumor cell line (enter value)
> 6.00

Form field: pIC50 recorded for COc1cc2ncn(-c3cc(OCc4ccccc4SC)c(C(N)=O)s3)c2cc1OC with colon (HCT116) tumor cell line (enter value)
5.00 to 6.00

Form field: pIC50 recorded for COc1cc2ncn(-c3cc(OCc4ccccc4[S+](C)[O-])c(C(N)=O)s3)c2cc1OC (centres unmarked) with colon (HCT116) tumor cell line (enter value)
5.00 to 6.00

Form field: pIC50 recorded for NC(=O)c1sc(-n2cnc3cc4c(cc32)OCCO4)cc1OCc1ccccc1C(F)(F)F with colon (HCT116) tumor cell line (enter value)
5.00 to 6.00

Form field: pIC50 recorded for O=C(O)c1sc(-n2cnc3cc(Cl)c(Cl)cc32)cc1OCc1ccco1 with colon (HCT116) tumor cell line (enter value)
< 5.00

Form field: pIC50 recorded for COc1cc2ncn(-c3cc(OCc4ccccc4C=O)c(C(N)=O)s3)c2cc1OC with colon (HCT116) tumor cell line (enter value)
> 6.00

----------
Listed next: entries and their corresponding IC50.
system: A549; assay: Methylene Blue Growth Inhibition Assay, A549; type: cell-based; conditions: Homo sapiens; Cell Line A549; read-out: MeB IC50

A selection of reference data follows.
- Compound: "COc1cc2ncn(-c3cc(OS(=O)(=O)c4ccccc4C)c(C(N)=O)s3)c2cc1OC"
  IC50: "< 1000 nM"
- Compound: "NC(=O)c1sc(-n2cnc3ccc(OCC4CCNCC4)cc32)cc1OCc1ccccc1C(F)(F)F"
  IC50: "1000 to 10000 nM"
- Compound: "COc1cc2ncn(-c3cc(OCc4ccccc4OC(F)(F)F)c(C(N)=O)s3)c2cc1OC"
  IC50: "< 1000 nM"

Any idea what its IC50 is? The compound is CS(=O)(=O)c1ccc2ncn(-c3cc(OCc4ccccc4C(F)(F)F)c(C(N)=O)s3)c2c1
1000 to 10000 nM

Any idea what its IC50 is? The compound is COc1cc2ncn(-c3cc(OCc4ccncc4Br)c(C(N)=O)s3)c2cc1OC
1000 to 10000 nM

Any idea what its IC50 is? The compound is COc1cc2ncn(-c3cc(OCc4cccnc4F)c(C(N)=O)s3)c2cc1OC
1000 to 10000 nM

----------
system: colon (HCT116) tumor cell line; experiment: Methylene Blue Growth Inhibition Assay, HCT116; format: cell-based; conditions: Homo sapiens, HCT-116, 72 h; Cell Line HCT116, 3 days; read-out: MeB IC50
Listed next: entries and their corresponding IC50.

A selection of reference data follows.
- Compound: "NC(=O)c1sc(-n2cnc3ccccc32)cc1OCc1ccccc1[N+](=O)[O-] [Example 117]"
  IC50: "< 1 µM"
- Compound: "COc1cc2ncn(-c3cc(OCc4ccccc4C(O)CO)c(C(N)=O)s3)c2cc1OC (centres unmarked) [Example 109]"
  IC50: "> 10 µM"
- Compound: "COc1cc2ncn(-c3cc(OCc4ccncc4Br)c(C(N)=O)s3)c2cc1OC [Example 120]"
  IC50: "1 to 10 µM"
- Compound: "CS(=O)(=O)c1ccc2ncn(-c3cc(OCc4ccccc4C(F)(F)F)c(C(N)=O)s3)c2c1 [Example 121]"
  IC50: "1 to 10 µM"
- Compound: "C#Cc1ccccc1COc1cc(-n2cnc3cc(OC)c(OC)cc32)sc1C(N)=O [Example 106]"
  IC50: "1 to 10 µM"

Any idea what its IC50 is? The compound is Cc1ccccc1COc1cc(-n2cnc3ccc(Cl)cc32)sc1C(N)=O [Example 61]
1 to 10 µM

Any idea what its IC50 is? The compound is COc1cc2ncn(-c3cc(OCC4CCCCO4)c(C(N)=O)s3)c2cc1OC (centres unmarked) [Example 112]
> 10 µM

Any idea what its IC50 is? The compound is Cc1ccccc1COc1cc(-n2cnc3cc(Cl)ccc32)sc1C(=O)O [Example 34]
> 10 µM

----------
system: colon (HCT116) tumor cell line; test: Methylene Blue Growth Inhibition Assay, HCT116; type: cell-based; conditions: Homo sapiens, HCT-116, 72 h; Cell Line HCT116, 3 days; read-out: MeB IC50
pIC50: −log10 of the molar value.
Reported property: pIC50

A selection of reference data follows.
- Chemical string: "COc1cc2ncn(-c3cc(OCc4ccccc4Br)c(C(N)=O)s3)c2cc1OC"
  Obs value: "> 6.00"
- Chemical string: "NC(=O)c1sc(-n2cnc3cc4c(cc32)OC(F)(F)O4)cc1OCc1ccccc1C(F)(F)F"
  Obs value: "< 5.00"
- Chemical string: "COc1cc2ncn(-c3cc(OCc4cccc(I)c4)c(C(N)=O)s3)c2cc1OC"
  Obs value: "5.00 to 6.00"
- Chemical string: "COc1cc2ncn(-c3cc(OCc4cccnc4F)c(C(N)=O)s3)c2cc1OC"
  Obs value: "5.00 to 6.00"
- Chemical string: "COc1cc2ncn(-c3cc(OCc4cccc(N(C)C)c4)c(C(N)=O)s3)c2cc1OC"
  Obs value: "5.00 to 6.00"
- Chemical string: "COc1cc2ncn(-c3cc(OCc4ccccc4OC(F)F)c(C(N)=O)s3)c2cc1OC"
  Obs value: "> 6.00"

Form field: pIC50 recorded for NC(=O)c1sc(-n2cnc3ccc(Br)cc32)cc1OCc1ccccc1C(F)(F)F with colon (HCT116) tumor cell line (enter value)
> 6.00

Form field: pIC50 recorded for CN(c1ccccc1)c1cc(-n2cnc3ccccc32)sc1C(N)=O with colon (HCT116) tumor cell line (enter value)
5.00 to 6.00
